Species on record: Homo sapiens
ASSAY PROCEDURE: Selectivity ratio of Kd for human beta1-AR expressed in CHOK1 cells to Kd for human beta2-AR expressed in CHOK1 cells
Assay type: cell-based
REPORTED ENDPOINT: Selectivity ratio
Please reply with the number alone, leaving off any unit.

Answered examples (5):
# SMILES REPR, REPORTED ENDPOINT, QUANTITATIVE READOUT
measured = [
    ("COc1cccc(/C=C2\\Oc3c(CN4CCCC4)c(O)cc(C)c3C2=O)c1", "Selectivity ratio", 6.5),
    ("COc1cccc(/C=C2\\Oc3c(CN4CCN(C)CC4)c(O)cc(C)c3C2=O)c1", "Selectivity ratio", 1.5),
    ("CN(C)CCOc1ccc2ccccc2c1C=O", "Selectivity ratio", 4.2),
    ("C[n+]1c(/C=C/Nc2ccccc2)sc2ccccc21", "Selectivity ratio", 6.6),
    ("CCOC(=O)c1cc(/C=C/c2sc3ccccc3[n+]2C)c2sc3ccccc3n12", "Selectivity ratio", 3.5),
]

Next compound, please.
Respond only with Selectivity ratio recorded for CC(C)(C)NC[C@@H](O)COc1ccccc1-c1ccccc1
27.5
